src = paper PMC9502836

Experiment: Cell viability (CC50) assay, MTS-based
Details: human; non-infected Huh7 cells, 3 days; read-out: CC50
Each entry below carries its recorded CC50 at 3 days.
Report the figure in µM without appending any unit label.

* Nc1ncnc2c1c(COc1ccccc1)cn2Cc1ccc([N+](=O)[O-])cc1 | 58

Now take the following molecule into account.
q: Given Nc1ncnc2c1c(COc1ccccc1)nn2Cc1ccc([N+](=O)[O-])cc1 , state its recorded CC50 at 3 days.
a: 39

----------
Assay: Cell viability (CC50) assay, MTS-based
Conditions: human; 10 µM compound, Huh7 cells, 3 days; read-out: ZIKV Reporter Assay Viability (%) at 10 µM
MEASURED ENDPOINT: viability at 3 days, 10 µM
The reply should read as a number followed by its unit.

Here is how some molecules turned out for viability at 3 days, 10 µM.
• Nc1ncnc2c1c(COc1ccccc1)nn2Cc1ccccc1[N+](=O)[O-] [Compound 8] = 103%
• Nc1ncnc2c1c(COc1ccccc1)nn2Cc1cccc([N+](=O)[O-])c1 [Compound 9] = 37%
• CS(=O)(=O)c1ccc(Cn2nc(COc3ccccc3)c3c(N)ncnc32)cc1 [Compound 14] = 93%

q: Given Nc1cc(Cn2nc(COc3ccccc3)c3c(N)ncnc32)ccn1 [Compound 22] , state its recorded viability at 3 days, 10 µM.
a: 36%

q: For Nc1ncnc2c1c(COc1ccccc1)nn2Cc1ccc(Cl)nc1 [Compound 21] then?
a: 64%

q: For Cc1cccc(OCc2nn(Cc3ccc([N+](=O)[O-])cc3)c3ncnc(N)c23)c1 [Compound 27] then?
a: 82%

q: For COC(=O)c1ccccc1Cn1nc(COc2ccccc2)c2c(N)ncnc21 [Compound 16] then?
a: 95%

q: For Cc1ccc(OCc2nn(Cc3ccc([N+](=O)[O-])cc3)c3ncnc(N)c23)cc1 [Compound 28] then?
a: 85%

q: For Nc1cccc(Cn2nc(COc3ccccc3)c3c(N)ncnc32)c1 [Compound 11] then?
a: 89%

----------
Test system: luciferase reporter ZIKV
Experiment: luciferase-based ZIKV reporter assay in Huh7 cells
Format: cell-based
Conditions: Zika virus, Huh-7, read-out: ZIKV Reporter Assay EC50
MEASURED ENDPOINT: EC50 (µM)
Report the figure in µM without appending any unit label.

q: Given Nc1ncnc2c1c(COc1ccccc1)nn2Cc1ccc(Cl)nc1 , state its recorded EC50.
a: 3.5

----------
Test: Cell viability (CC50) assay, MTS-based
Settings: human; 10 µM compound, Huh7 cells, 3 days; read-out: ZIKV Reporter Assay Viability (%) at 10 µM
MEASURED ENDPOINT: viability at 3 days, 10 µM (%)
Report the figure in % without appending any unit label.

- Nc1ncnc2c1c(COc1ccccc1)nn2Cc1ccc(C(F)(F)F)cc1 [Compound 13]: 86
- Nc1ncnc2c1c(COc1ccccc1)nn2Cc1ccccc1 [Compound 7]: 99
- Cc1ccccc1OCc1nn(Cc2ccc([N+](=O)[O-])cc2)c2ncnc(N)c12 [Compound 26]: 77
- CC(C)(C)OC(=O)Nc1ccc(Cn2nc(COc3ccccc3)c3c(N)ncnc32)cn1 [Compound 25]: 40
- Nc1ncnc2c1c(COc1ccc(Cl)cc1)nn2Cc1ccc([N+](=O)[O-])cc1 [Compound 31]: 94

q: Given Nc1ncnc2c1c(CNc1ccccc1)cn2Cc1ccc([N+](=O)[O-])cc1 [Compound 4] , state its recorded viability at 3 days, 10 µM.
a: 40

q: For COC(=O)c1ccc(Cn2nc(COc3ccccc3)c3c(N)ncnc32)cc1 [Compound 18] then?
a: 95

q: For Nc1ccc(Cn2nc(COc3ccccc3)c3c(N)ncnc32)cn1 [Compound 23] then?
a: 82

q: For NC(=O)c1ccc(Cn2nc(COc3ccccc3)c3c(N)ncnc32)cc1 [Compound 19] then?
a: 77

----------
Experiment: Cell viability (CC50) assay, MTS-based
Conditions: human
MEASURED ENDPOINT: CC50 at 3 days (µM)
Report the figure in µM without appending any unit label.

q: Given Nc1ncnc2c1c(COc1ccccc1)nn2Cc1ccc(Cl)nc1 [Compound 21] , state its recorded CC50 at 3 days.
a: 25

----------
Each entry below carries its recorded viability at 3 days, 10 µM.
Experiment: Cell viability (CC50) assay, MTS-based
Settings: human; 10 µM compound, Huh7 cells, 3 days; read-out: ZIKV Reporter Assay Viability (%) at 10 µM
Report the figure in % without appending any unit label.

- Nc1ncnc2c1c(COc1cccc(Cl)c1)nn2Cc1ccc([N+](=O)[O-])cc1 [Compound 30]: 93

Now take the following molecule into account.
q: Given Nc1ncnc2c1c(COc1ccccc1)cn2Cc1ccc([N+](=O)[O-])cc1 [Compound 5] , state its recorded viability at 3 days, 10 µM.
a: 82

----------
Each entry below carries its recorded viability at 3 days, 10 µM.
Experiment: Cell viability (CC50) assay, MTS-based
Conditions: human; 10 µM compound, Huh7 cells, 3 days; read-out: ZIKV Reporter Assay Viability (%) at 10 µM
The reply should read as a number followed by its unit.

* Nc1ncnc2c1c(COc1ccccc1)nn2Cc1ccc([N+](=O)[O-])cc1 | 82%
* Nc1ncnc2c1c(COc1ccccc1)nn2Cc1ccnc(Cl)c1 | 39%
* COC(=O)c1cccc(Cn2nc(COc3ccccc3)c3c(N)ncnc32)c1 | 38%
* CC(C)(C)OC(=O)Nc1cc(Cn2nc(COc3ccccc3)c3c(N)ncnc32)ccn1 | 36%
* Nc1ccccc1Cn1nc(COc2ccccc2)c2c(N)ncnc21 | 99%

q: Given Nc1ncnc2c1c(COc1ccccc1Cl)nn2Cc1ccc([N+](=O)[O-])cc1 , state its recorded viability at 3 days, 10 µM.
a: 94%

q: For Nc1ccc(Cn2nc(COc3ccccc3)c3c(N)ncnc32)cc1 then?
a: 95%

q: For N#Cc1ccc(Cn2nc(COc3ccccc3)c3c(N)ncnc32)cc1 then?
a: 99%
